Quick list: pEC50 per entry.
# test system: UniProt O14842
# Sequence (O14842 whole entry): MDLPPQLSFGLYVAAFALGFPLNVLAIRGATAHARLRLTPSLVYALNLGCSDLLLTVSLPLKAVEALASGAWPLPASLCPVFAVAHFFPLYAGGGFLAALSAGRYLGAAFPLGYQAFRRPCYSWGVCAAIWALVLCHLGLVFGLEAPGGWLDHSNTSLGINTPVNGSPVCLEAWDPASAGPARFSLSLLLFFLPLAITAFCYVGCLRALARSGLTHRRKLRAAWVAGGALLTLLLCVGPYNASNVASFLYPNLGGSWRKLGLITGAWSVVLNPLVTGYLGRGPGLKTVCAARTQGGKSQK
# assay: Cell-based aequorin assay (CHO cells stably expressing GPR40 and aequorin)
# Design: expressed in transfected cells; host or cells: CHO cells stably transfected with GPR40 and aequorin
# assay setup: activation of human GPR40, CHO cells, 0.01% HSA
pEC50: −log10 of the molar value.

Field: example entries. Status: answers known.
CCC(CC(=O)O)c1cc(F)cc(OCc2ccc(-c3cc(OC)ncc3F)c(C3CCCC3(C)C)c2)c1F (single isomer, unassigned)
6.00 to 7.00
CC[C@H](CC(=O)O)c1cccc(OCc2ccc(-c3cc(OC)ncc3F)c(C3(COC)CCCC3)c2)c1F (single isomer, unassigned)
5.00 to 6.00
CCCC(CC(=O)O)c1cccc(OCc2ccc(-c3cc(OC)ccc3F)c(OCCCC(C)C)c2)c1 (single isomer, unassigned)
6.00 to 7.00
CCC[C@H](CC(=O)O)c1cccc(OCc2ccc(-c3cc(OC)ccc3F)c(C(C)(C)C)c2)c1 (single isomer, unassigned)
6.00 to 7.00
COc1cc(-c2ccc(COc3cccc(C(CC(=O)O)CC4CC4)c3F)cc2C2CCCC2(C)C)c(F)cn1 (single isomer, unassigned)
6.00 to 7.00

Ask: Supply reported pEC50 belonging to this molecule: COc1ccc(F)c(-c2ccc(COc3cccc([C@@H](CC(=O)O)C4CC4)c3)cc2C2CCCC2(C)C)c1 (single isomer, unassigned)
Result: 6.00 to 7.00

Ask: Could you please provide reported pEC50 for COc1ccc(F)c(-c2ccc(COc3cccc([C@@H](CC(=O)O)C(C)C)c3)cc2C(C)(C)C)c1 (single isomer, unassigned) ? Thanks!
Result: 5.00 to 6.00

Ask: Specify measured pEC50 for CCCOc1cc(COc2cccc([C@H](C)CC(=O)O)c2)ccc1-c1cc(OC)ccc1F (single isomer, unassigned) .
Result: 5.00 to 6.00

Ask: Fill in reported pEC50 for this entry: COc1ccc(F)c(-c2ccc(COc3cccc([C@@H](CC(=O)O)C4CC4)c3)cc2C(C2CC2)N(C)C)c1 (single isomer, unassigned)
Result: 5.00 to 6.00

Ask: Tell us which pEC50 value is on record for CCC(CC(=O)O)c1cc(F)cc(OCc2ccc(-c3cc(OC)ccc3F)c(C3CCCC3(C)C)c2)c1F (single isomer, unassigned) [Example 90.2]
Result: 6.00 to 7.00

Ask: Output pEC50 of COc1ccc(F)c(-c2ccc(COc3cccc(C(C)(C)CC(=O)O)c3)cc2C2CCCC2(C)C)c1 (single isomer, unassigned)
Result: 6.00 to 7.00

Ask: Write down pEC50 measured for item CCC(CC(=O)O)c1cc(F)cc(OCc2ccc(-c3cc(OC)ccc3F)c(C3CCCC3(C)C)c2)c1 (single isomer, unassigned)
Result: 7.00 to 8.00
